TEST_SYSTEM: human orexin type 2 receptor (hOX2R) (Homo sapiens)
Construct: expressed in transfected cells
Sequence (O43614 whole entry): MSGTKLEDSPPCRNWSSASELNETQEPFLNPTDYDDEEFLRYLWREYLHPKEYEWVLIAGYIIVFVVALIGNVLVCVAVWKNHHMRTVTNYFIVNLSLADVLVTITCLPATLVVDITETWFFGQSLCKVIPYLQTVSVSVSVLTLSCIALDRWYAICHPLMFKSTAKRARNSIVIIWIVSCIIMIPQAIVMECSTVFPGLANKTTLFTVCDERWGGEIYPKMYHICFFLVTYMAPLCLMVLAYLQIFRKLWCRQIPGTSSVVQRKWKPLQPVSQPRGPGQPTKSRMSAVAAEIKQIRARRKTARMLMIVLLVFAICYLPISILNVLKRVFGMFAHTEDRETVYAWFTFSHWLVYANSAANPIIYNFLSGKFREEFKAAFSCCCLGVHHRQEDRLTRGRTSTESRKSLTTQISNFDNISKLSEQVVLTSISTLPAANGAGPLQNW
EXPERIMENTAL_PROTOCOL: Measurement of orexin type 2 receptor agonist activity (FLIPR calcium fluorescence)
Assay type: cell-based
PARTICULARS: CHO, CHO cells expressing hOX2R, FLIPR calcium fluorescence; read-out: hOx2 Emax (%)
# Emax listing for each entry below

# MOLECULE, Emax
rows = [
    ("[2H]C([2H])([2H])N(C(=O)N1CC2(CC2)[C@H](NS(C)(=O)=O)[C@@H]1Cc1cc(F)cc(-c2ccccc2)c1F)C([2H])([2H])[2H]", "90 to 100%"),
    ("CC(C)S(=O)(=O)N[C@@H]1[C@H](Cc2cccc(-c3cc(F)cc(F)c3)c2F)N(C(=O)[C@H]2CCO2)CC12CC2", "90 to 100%"),
    ("O=C([C@@H](O)C(F)F)N1CC2(CC2)[C@H](NS(=O)(=O)C(F)F)[C@@H]1Cc1cccc(-c2ccccc2)c1F", "90 to 100%"),
]

Data provenance is patent US12503475B2.
